- test-target: Interstitial collagenase (Homo sapiens)
- Sequence (P03956 whole entry): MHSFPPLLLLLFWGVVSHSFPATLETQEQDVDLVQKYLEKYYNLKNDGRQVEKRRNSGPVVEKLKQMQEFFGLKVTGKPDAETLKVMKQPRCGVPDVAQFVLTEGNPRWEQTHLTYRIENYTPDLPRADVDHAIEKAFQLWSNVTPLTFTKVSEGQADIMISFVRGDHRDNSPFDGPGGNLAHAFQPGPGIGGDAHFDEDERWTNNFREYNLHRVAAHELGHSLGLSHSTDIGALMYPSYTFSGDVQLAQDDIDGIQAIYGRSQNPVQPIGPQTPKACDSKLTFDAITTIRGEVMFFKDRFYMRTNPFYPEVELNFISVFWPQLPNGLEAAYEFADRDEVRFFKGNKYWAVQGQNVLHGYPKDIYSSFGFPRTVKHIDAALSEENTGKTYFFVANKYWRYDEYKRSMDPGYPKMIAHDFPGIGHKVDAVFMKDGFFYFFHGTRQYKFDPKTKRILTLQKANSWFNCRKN
endpoint: pIC50
Please express pIC50 as -log10 of the molar concentration.

CC(C)C[C@H](NP(=O)(O)CCCCN1C(=O)c2ccccc2C1=O)C(=O)N[C@@H](Cc1c[nH]c2ccccc12)C(=O)NCc1ccccc1 :: 7.30

Read the next record carefully.
Asked: Recorded pIC50 for CC(C)C[C@H](NC(=O)[C@H](Cc1ccccc1)NP(=O)(O)CCCCN1C(=O)c2ccccc2C1=O)C(=O)NCc1ccccc1 , please?
Given back: 4.52

* * *

Below, each entry is listed with its recorded pKi.
- test-target: 72 kDa type IV collagenase (Homo sapiens, UniProt P08253)
- procedure-text: Inhibition of gelatinase-A (MMP-2).
- Sequence (P08253 whole entry): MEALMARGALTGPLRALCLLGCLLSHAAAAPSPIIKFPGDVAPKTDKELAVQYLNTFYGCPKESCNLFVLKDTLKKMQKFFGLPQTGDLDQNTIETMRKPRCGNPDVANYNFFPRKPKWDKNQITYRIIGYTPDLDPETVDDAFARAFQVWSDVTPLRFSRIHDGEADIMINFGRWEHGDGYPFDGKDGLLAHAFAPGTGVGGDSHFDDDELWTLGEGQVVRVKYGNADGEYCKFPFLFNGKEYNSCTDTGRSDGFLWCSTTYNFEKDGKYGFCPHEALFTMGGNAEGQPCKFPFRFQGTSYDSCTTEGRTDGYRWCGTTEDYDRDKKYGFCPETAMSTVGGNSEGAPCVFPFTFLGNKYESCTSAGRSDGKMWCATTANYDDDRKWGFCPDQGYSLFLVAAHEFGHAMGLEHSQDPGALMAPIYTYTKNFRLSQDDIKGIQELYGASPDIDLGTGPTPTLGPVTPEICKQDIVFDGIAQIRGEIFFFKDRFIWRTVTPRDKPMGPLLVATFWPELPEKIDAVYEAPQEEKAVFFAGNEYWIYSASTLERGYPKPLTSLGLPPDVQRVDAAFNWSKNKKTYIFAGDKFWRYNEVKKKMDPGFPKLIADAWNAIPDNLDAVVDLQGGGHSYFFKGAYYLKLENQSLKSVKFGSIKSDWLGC
Quick note: pKi means taking -log10 of the concentration in moles per liter.

CC(C)C[C@H](NC(=O)[C@H](CCc1ccccc1)CP(=O)(O)CCCCN1Cc2ccccc2C1=O)C(=O)Nc1ccccc1 :: 8.14

Asked: Data request, read-out pKi, for CC(C)C[C@H](NC(=O)[C@H](CCc1ccccc1)CP(=O)(O)CCCCNC(=O)c1ccccc1)C(=O)Nc1ccccc1
Given back: 7.59

Asked: Same read-out for CC(C)C[C@H](NC(=O)[C@H](CCc1ccccc1)CP(=O)(O)C/C=C/CN1C(=O)c2ccccc2C1=O)C(=O)Nc1ccccc1 ?
Given back: 8.32

Asked: // next record CC(C)C[C@H](NC(=O)[C@H](CCc1ccccc1)CP(=O)(O)CCCCNC(=O)[C@@H]1CCCN1C(=O)c1ccccc1)C(=O)Nc1ccccc1
Given back: 8.68

Asked: # iterate: CC(C)C[C@H](NC(=O)[C@H](CCc1ccccc1)CP(=O)(O)CCCCNC(=O)Cc1ccccc1)C(=O)Nc1ccccc1
Given back: 6.89

Asked: Consider next the compound COc1ccccc1CC[C@H](CP(=O)(O)CCCCN1C(=O)c2ccccc2C1=O)C(=O)N[C@@H](CC(C)C)C(=O)Nc1ccccc1 in the same way.
Given back: 5.36

* * *

- test-target: 72 kDa type IV collagenase (Homo sapiens, UniProt P08253)
- procedure-text: Inhibition of gelatinase-A (MMP-2) at a concentration of 1 uM
- Sequence (P08253 110-660 limits assumed): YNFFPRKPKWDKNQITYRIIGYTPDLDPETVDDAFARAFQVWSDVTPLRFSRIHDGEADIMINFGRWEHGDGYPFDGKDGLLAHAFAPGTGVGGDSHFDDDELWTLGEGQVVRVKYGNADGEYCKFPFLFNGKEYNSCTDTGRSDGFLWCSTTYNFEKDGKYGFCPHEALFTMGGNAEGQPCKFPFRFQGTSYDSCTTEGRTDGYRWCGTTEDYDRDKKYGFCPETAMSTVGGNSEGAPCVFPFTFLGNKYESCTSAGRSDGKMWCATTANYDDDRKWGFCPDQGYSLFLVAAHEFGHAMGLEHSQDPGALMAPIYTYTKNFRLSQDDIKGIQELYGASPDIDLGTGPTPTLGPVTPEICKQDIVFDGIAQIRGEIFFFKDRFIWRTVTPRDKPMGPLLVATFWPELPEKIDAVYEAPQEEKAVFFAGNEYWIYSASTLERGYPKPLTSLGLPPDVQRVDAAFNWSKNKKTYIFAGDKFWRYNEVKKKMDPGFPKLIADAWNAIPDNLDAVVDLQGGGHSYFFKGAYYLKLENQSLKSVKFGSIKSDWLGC
Please mark true (1) if the recorded inhibition is equal to or greater than 80%, and false (0) if it falls below.

Examples with answers:
CC(=O)N1CCC[C@@H]1C(=O)NCCCCP(=O)(O)C[C@@H](CCc1ccccc1)C(=O)N[C@@H](CC(C)C)C(=O)Nc1ccccc1 :: true (1)
CCOC(=O)NCCCCP(=O)(O)C[C@@H](CCc1ccccc1)C(=O)N[C@@H](CC(C)C)C(=O)Nc1ccccc1 :: true (1)
CC(C)C[C@H](NC(=O)[C@H](CCc1ccccc1)CP(=O)(O)CCC(=O)NCCc1ccccc1)C(=O)Nc1ccccc1 :: false (0)
CC(C)C[C@H](NC(=O)[C@H](CCc1ccccc1)CP(=O)(O)CCC(=O)NCCCc1ccccc1)C(=O)Nc1ccccc1 :: false (0)
CC(C)C[C@H](NC(=O)[C@H](CCc1ccccc1)CP(=O)(O)CCCCNC(=O)Oc1ccccc1)C(=O)Nc1ccccc1 :: false (0)
CC(C)C[C@H](NC(=O)[C@H](CCc1ccccc1)CP(=O)(O)CCCCNC(=O)OCc1ccccc1)C(=O)Nc1ccccc1 :: true (1)
CNC(=O)NCCCCP(=O)(O)C[C@@H](CCc1ccccc1)C(=O)N[C@@H](CC(C)C)C(=O)Nc1ccccc1 :: true (1)
COC(=O)NCCCCP(=O)(O)C[C@@H](CCc1ccccc1)C(=O)N[C@@H](CC(C)C)C(=O)Nc1ccccc1 :: true (1)

Asked: Record CC(C)C[C@H](NC(=O)[C@H](CCc1ccccc1)CP(=O)(O)CCCCNC(=O)[C@H]1CCCN1C(=O)c1ccccc1)C(=O)Nc1ccccc1 ; criterion: inhibition no lower than 80%. Met?
Given back: true (1)
